Entries and their IC50
target: UniProt:Q96P20; experiment: THP-1 cells pyroptosis assay; format: cell-based; parameters: Seed THP-1 cells (25,000cells/well) containing 1.0 μg/ml LPS in 40 μl of RPMI medium; host or cells: THP-1 cells; conditions: LPS 1 μg/ml, nigericin 5 μM, resazurin readout
Sequence (Q96P20 whole entry): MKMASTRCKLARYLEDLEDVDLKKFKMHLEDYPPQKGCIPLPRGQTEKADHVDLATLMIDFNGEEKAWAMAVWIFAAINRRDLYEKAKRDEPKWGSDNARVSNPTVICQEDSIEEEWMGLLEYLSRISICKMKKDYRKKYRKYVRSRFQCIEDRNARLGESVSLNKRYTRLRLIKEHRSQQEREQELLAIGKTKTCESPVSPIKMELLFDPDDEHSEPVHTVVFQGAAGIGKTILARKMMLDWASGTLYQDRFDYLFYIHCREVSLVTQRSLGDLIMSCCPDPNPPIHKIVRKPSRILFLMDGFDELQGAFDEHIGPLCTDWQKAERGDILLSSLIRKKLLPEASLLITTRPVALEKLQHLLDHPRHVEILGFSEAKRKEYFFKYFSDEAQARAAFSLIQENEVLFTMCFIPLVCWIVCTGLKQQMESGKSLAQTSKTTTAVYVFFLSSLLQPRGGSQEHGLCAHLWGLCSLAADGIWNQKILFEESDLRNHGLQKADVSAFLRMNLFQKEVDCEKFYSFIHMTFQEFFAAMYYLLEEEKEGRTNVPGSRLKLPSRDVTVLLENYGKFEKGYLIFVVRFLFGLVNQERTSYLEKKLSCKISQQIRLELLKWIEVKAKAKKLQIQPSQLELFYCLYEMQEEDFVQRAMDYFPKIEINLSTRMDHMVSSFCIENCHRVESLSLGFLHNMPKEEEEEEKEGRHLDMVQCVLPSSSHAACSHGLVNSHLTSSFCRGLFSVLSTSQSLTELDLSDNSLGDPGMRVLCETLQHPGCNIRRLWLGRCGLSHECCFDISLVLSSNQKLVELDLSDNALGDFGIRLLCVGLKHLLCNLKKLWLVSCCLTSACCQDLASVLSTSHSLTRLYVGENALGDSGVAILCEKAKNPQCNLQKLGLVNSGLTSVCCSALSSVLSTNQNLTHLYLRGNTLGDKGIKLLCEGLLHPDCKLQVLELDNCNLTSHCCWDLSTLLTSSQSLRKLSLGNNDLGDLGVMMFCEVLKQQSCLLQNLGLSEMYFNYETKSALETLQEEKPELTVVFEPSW
Counter-ions that a name gives are not always drawn.

Compound: Cc1cc2c(c(NC(=O)NS(C)(=O)=O)c1-c1ccnc(OC3CCN(C)CC3)c1C)CCC2
IC50: 250 to 500 nM
//
Compound: Cc1cc2c(c(NC(=O)NS(=O)(=O)c3cc(C(C)(C)O)co3)c1-c1ccnc(OC3CCN(C)CC3)c1)CCC2
IC50: ≤ 250 nM
//
Compound: [2H]C([2H])([2H])Oc1cc(-c2c(C)c(F)cc(C(C)C)c2NC(=O)NS(C)(=O)=O)ccn1
IC50: 250 to 500 nM
//
Compound: Cc1nc(C(C)C)c(NC(=O)NS(=O)(=O)c2cc(C(C)(C)O)co2)n1-c1ccncc1 [Example 46, ammonium salt]
IC50: ≤ 250 nM
//
Compound: Cc1cc2c(c(NC(=O)NS(C)(=O)=O)c1-c1ccnc(OC3CCCCC3)c1)CCC2
IC50: ≤ 250 nM
//
Compound: Cc1cc2c(c(NC(=O)NS(C)(=O)=O)c1-c1ccnc(OC3CCOCC3)c1)CCC2
IC50: ≤ 250 nM

Please look at the following compound next.
### Prompt Return value of IC50 for input COc1cc(-n2c(C)nc(C(C)C)c2NC(=O)NS(=O)(=O)c2cc(C(C)(C)O)co2)ccn1 , no commentary.
### Response 250 to 500 nM
